Where these numbers come from: ChEMBL document CHEMBL1777766

Listing of entries alongside the reported MIC.
# Tested on: Staphylococcus epidermidis
# MEASUREMENT PROTOCOL: Antibacterial activity against methicillin-sensitive Staphylococcus epidermidis 08-17
# Assay type: functional
The answer consists of two parts: a number and, after it, its unit.

Example entries and their recorded answers appear below.
1. CO/N=C1\CCN(c2c(F)cc3c(=O)c(C(=O)O)cn(C4CC4)c3c2OC(F)F)CC1CN (racemic) : 1 µg/mL
2. C[C@H]1COc2c(N3CCN(C)CC3)c(F)cc3c(=O)c(C(=O)O)cn1c23.C[C@H]1COc2c(N3CCN(C)CC3)c(F)cc3c(=O)c(C(=O)O)cn1c23.O : 1 µg/mL
3. O=C(O)c1cn(C2CC2)c2cc(N3CCNCC3)c(F)cc2c1=O : 2 µg/mL
4. CCO/N=C1\CCN(c2c(F)cc3c(=O)c(C(=O)O)cn(C4CC4)c3c2OC)CC1CN (racemic) : 4 µg/mL
5. CO/N=C1\CCN(c2c(F)cc3c(=O)c(C(=O)O)cn(C4CC4)c3c2F)CC1CN (racemic) : 1 µg/mL

Would you mind telling me what MIC value was observed for CCO/N=C1\CCN(c2c(F)cc3c(=O)c(C(=O)O)cn(C4CC4)c3c2F)CC1CN (racemic) ?
2 µg/mL

Now consider CCn1cc(C(=O)O)c(=O)c2cc(F)c(N3CC/C(=N\OC)C(CN)C3)c(F)c21 (racemic) and answer again.
16 µg/mL

Next compound up: CO/N=C1\CCN(c2nc3c(cc2F)c(=O)c(C(=O)O)cn3-c2ccc(F)cc2F)CC1CN (racemic)
2 µg/mL

Let us now turn to CCO/N=C1\CCN(c2c(F)cc3c(=O)c(C(=O)O)cn(CCF)c3c2F)CC1CN (racemic)
64 µg/mL

* * *

# Test system: Serratia marcescens
# MEASUREMENT PROTOCOL: Antibacterial activity against Serratia marcescens 41002
# Type: functional
MIC overview
Respond numerically; units are mg/L and should not be typed.

Check out these entries, answers already filled in.
1. CO/N=C1\CN(c2nc3c(cc2F)c(=O)c(C(=O)O)cn3C2CC2)CC1CN (stereo unspecified) : 0.125
2. CCO/N=C1\CCN(c2c(F)cc3c(=O)c(C(=O)O)cn(CC)c3c2F)CC1CN (racemic) : 16
3. CCO/N=C1\CCN(c2nc3c(cc2F)c(=O)c(C(=O)O)cn3-c2ccc(F)cc2F)CC1CN (racemic) : 16
4. CO/N=C1\CCN(c2c(F)cc3c(=O)c(C(=O)O)cn(C4CC4)c3c2OC(F)F)CC1CN (racemic) : 8

Quick one: MIC of CO/N=C1\CCN(c2c(F)cc3c(=O)c(C(=O)O)cn(CCF)c3c2F)CC1CN (racemic) ?
16

Proceed to CCO/N=C1\CCN(c2c(F)cc3c(=O)c(C(=O)O)cn(C4CC4)c3c2OC(F)F)CC1CN (racemic)
32

Moving on to the next molecule: CCn1cc(C(=O)O)c(=O)c2cc(F)c(N3CC/C(=N\OC)C(CN)C3)c(F)c21 (racemic)
8

Another: CO/N=C1\CCN(c2c(F)cc3c(=O)c(C(=O)O)cn(C4CC4)c3c2OC)CC1CN (racemic)
8

Cool, now CCO/N=C1\CCN(c2c(F)cc3c(=O)c(C(=O)O)cn(CCF)c3c2F)CC1CN (racemic)
16

Let us now turn to O=C(O)c1cn(C2CC2)c2cc(N3CCNCC3)c(F)cc2c1=O
0.25

Follow-up entry: C[C@H]1COc2c(N3CCN(C)CC3)c(F)cc3c(=O)c(C(=O)O)cn1c23.C[C@H]1COc2c(N3CCN(C)CC3)c(F)cc3c(=O)c(C(=O)O)cn1c23.O
0.25
